Test system: PC-3 prostate
EXPERIMENTAL DETAILS: NCI-60 one-dose screen, 48 h
SETTINGS: 10 µM unless noted
Description: Growth inhibition of the PC-3 human tumor cell line is measured as a screen for anti-cancer activity. Cells are grown in 96 well plates and exposed to the test compound for 48 hours. Compounds are tested at a single concentration, which is 10^-5 M for most compounds. The reported endpoint is percent growth (GI% or GIPRCNT), where numbers from 0 - 100% represent growth inhibition, and numbers from -100% - 0 represent cell death. For example, a value of 40 represents 60% growth inhibition. […]
This is part of a sample that, as a whole, favours compounds with a hit. Of some 83,000 tested, about 20% had one in any assay. Calls of active or inactive are those of the source. How the source made its calls: active means growth percent below 10; inactive means the rest.
Reply using exactly one outcome from 1.0 for active, 0.0 for inactive

O=C1/C(=C/c2ccccc2[N+](=O)[O-])COc2ccc(O)cc21: 1.0
COc1cc(N2C(=O)[C@H](c3ccccc3)C2c2ccc(SC)cc2)cc(OC)c1OC (stereo not given in full): 0.0
CCC(CC)(N(CC(=O)O)CC(=O)O)C(CC)(CC)N(CC(=O)O)CC(=O)O: 0.0
CCOC(=O)NN1CC(O)=C(c2nc(-c3ccc(Br)cc3)cs2)C1=N: 0.0

Hey, what did the test say about O=C1OCC2=C1C(c1cccc(F)c1)c1cc3c(cc1N2CCO)OCO3 (stereo not given) ?
0.0

* * *

Test system: ACHN renal
EXPERIMENTAL DETAILS: NCI-60 one-dose screen, 48 h (100 = growth as untreated, 0 = no growth, -100 = all killed)
SETTINGS: 10 µM unless noted
About 83,000 compounds went through this panel and 20% of them were active in at least one assay; those are over-represented in the sample as a whole.
# note: exactly 30% is not below, so it is 0 (no); use 1 (yes) for growth strictly under it

COC(=O)C1=C(C)NC(C)=C(C(=O)OCC(C)C)C1c1ccccc1[N+](=O)[O-] (stereo not given): 1 (yes)

Criterion: growth strictly below 30%. Is it met by CC1=CCC[C@@H]2C1(C)CC[C@H](C)[C@@]2(C)CC1=CC(=O)C(SC(C)(C)C)=CC1=O (stereo not given in full) ?
0 (no)

Criterion: growth strictly below 30%. Is it met by "N=c1c2c(=N)n3c(nc2nc2n1-c1ccccc1Sc1ccccc1-2)sc1cc(Cl)ccc13" ?
1 (yes)

Criterion: growth strictly below 30%. Is it met by COc1ccc(C2C(C#N)=C(N)Oc3c2sc2c(Br)cccc32)cc1 (stereo not given) ?
0 (no)

* * *

Test system: COLO 205 colon
EXPERIMENTAL DETAILS: NCI-60 one-dose screen, 48 h
SETTINGS: 10 µM unless noted
Compounds without any hit were thinned out: in the full panel of roughly 83,000, 20% have a hit. Calls of active or inactive are those of the source. How the source made its calls: active means growth percent below 10; inactive means the rest.
Reply using exactly one outcome from active, inactive

CCCCCCCCn1ccc2cc(NC(=O)Cn3cc(CN4CCCCCC4)nn3)ccc21: active
CCOC(=O)c1c(NC(=O)c2ccc(OC)cc2)sc2c(CN(C)C)c(O)ccc12: inactive
CC/C=C1/C(=O)C=C[C@@H]1C/C=C\CCCC(=O)OC: inactive
Cc1ccc(S(=O)(=O)n2cc(C3C(Cl)C(=O)N3c3ccc(N4CCOCC4=O)cc3)c3ccccc32)cc1 (stereo not given): inactive

Hey, what did the test say about COC(=O)/C(CCC=C(C)C)=C1\[C@@H](OC(C)=O)C[C@@]2(C)[C@H]1CC(=O)[C@H]1[C@@]3(C)CCC(N4CCCC4)[C@@H](C)[C@@H]3CC[C@@]12C (stereo not given in full) ?
inactive

Hey, what did the test say about COc1ccc(C(c2cc(OC)c(OC)c(OC)c2)N2CCN(Cc3ccccc3)CC2)cc1 (stereo not given) ?
inactive

Hey, what did the test say about Cc1ccc(C)c2c1C(O)(C#Cc1ccccc1)c1ccccc1C2(O)C#Cc1ccccc1 (stereo not given) ?
inactive
